test: qHTS for Inhibitors of human tyrosyl-DNA phosphodiesterase 1 (TDP1): qHTS in cells in presence of CPT; settings: chicken DT40 Tdp1-/-;hTDP1 cells + 20 nM CPT, ATP luminescence, 48 h; series mostly up to 46.2 µM; note: nearly all actives have a fitted effect of over 55% in size; note: potency is the fitted concentration of half-maximal effect
About 50,000 (12%) of roughly 420,000 compounds were called active. About 26% were inconclusive and are not listed. The sample holds actives, similar compounds and a random draw of the others, so the mix is not that of the screen.
propertyMeasured: Potency

compound	Potency
COc1ccc(C2C3=C(CCCC3=O)N(CC(=O)O)C3=C2C(=O)CCC3)cc1	inactive
COC(=O)c1cc(OCC(=O)NC2CCCc3ccccc32)cc(C(=O)OC)c1 (stereo unspecified)	inactive
Cn1cc(S(=O)(=O)Nc2ccc(Cl)cc2Cl)c(=O)n(C)c1=O	20.6 µM (active)
COc1ccccc1NC(=O)c1oc2ccccc2c1NC(=O)C(C)C	10.3 µM (active)

# batch size: 7; output Potency per entry
1. C=C(C)C1CC=C(CO)CC1 (stereo unspecified)
2. Cc1cc2ccccn2c1C(=O)c1cccc(S(=O)(=O)N2CCOCC2)c1
3. O=c1onc(-c2c(F)cccc2F)n1-c1ccccc1Cl
4. Cn1ncc(Br)c1C(=O)NC1CCCC1
5. CCOC(=O)c1c(S(=O)(=O)NCC(=O)Nc2ccc(Cl)c(C(F)(F)F)c2)c(C)n(C)c1C
6. CCOC(=O)c1c(S(=O)(=O)Nc2ccc(CN3CCC(C)CC3)cc2)c(C)n(C)c1C
7. COc1ccc2c(CC(=O)NNC(=O)c3ccccc3F)coc2c1

Resp:
["inactive", "14.6 µM (active)", "inactive", "inactive", "18.4 µM (active)", "inactive", "inactive"]

----------
test: qHTS for Inhibitors of human tyrosyl-DNA phosphodiesterase 1 (TDP1): qHTS in cells in presence of CPT; conditions: chicken DT40 Tdp1-/-;hTDP1 cells + 20 nM CPT, ATP luminescence, 48 h; series mostly up to 46.2 µM; note: nearly all actives have a fitted effect of over 55% in size
The whole screen tested about 420,000 compounds, of which about 50,000 (12%) were called active. Inconclusive results (about 26%) are left out. Calls follow the shape of the dose curve; as a rule, active = well fitted inhibition curve with a large enough effect; inconclusive = small, poorly fitted or top-dose-only effect; inactive = flat fitted curve, though single readings scatter. Only a selection was taken, and actives are over-represented in it overall.
Bench note: report the call from TRUE for active, FALSE for inactive

Use the examples below as a reference point.
molecule	discreteLabel
Cc1cc2cc3c(N)[nH]nc3nc2cc1C	FALSE
COCCNc1nc(N)c([N+](=O)[O-])c(N2CCCCCC2)n1	FALSE
S=C(NCc1cccnc1)Nc1ccc(Cl)cc1Cl	FALSE
O=C(NCCCn1ccnc1)c1ccccc1F	FALSE
Cc1cn([C@H]2C[C@H](O)[C@@H](CNC(=O)[C@H](N)Cc3cccnc3)O2)c(=O)[nH]c1=O	FALSE

Req: Just curious, what result did `Cc1ccc(S(=O)(=O)c2nnn3c2nc(N2CCN(c4ccccc4F)CC2)c2cc(Cl)ccc23)cc1C` get here?
Resp: FALSE

Req: Short answer needed: outcome of this test for O=S(=O)(NC1CC2CCC1C2)c1ccc(Cl)cc1 (stereo unspecified) ?
Resp: FALSE

Req: So what was the verdict on N#CC1=C(N)Oc2c(sc3ccccc23)C1c1ccco1 (stereo unspecified) in this test?
Resp: TRUE

Req: Recorded test call requested for `C#CCN(N(C)c1ncc(C(F)(F)F)cc1Cl)S(=O)(=O)c1ccc2ccccc2c1`
Resp: FALSE

Req: What call does the record list for `CCOc1ccccc1NC(=O)Cn1c(=O)n(Cc2ccco2)c(=O)c2sc3ccccc3c21` ?
Resp: FALSE

Req: Per the assay record, what outcome was assigned to CC(Oc1ccccc1F)C(=O)NN (stereo unspecified) ?
Resp: FALSE

----------
test: qHTS for Inhibitors of human tyrosyl-DNA phosphodiesterase 1 (TDP1): qHTS in cells in presence of CPT; details: chicken DT40 Tdp1-/-;hTDP1 cells + 20 nM CPT, ATP luminescence, 48 h; series mostly up to 46.2 µM; note: nearly all actives have a fitted effect of over 55% in size
About 50,000 (12%) of roughly 420,000 compounds were called active. Not shown: some 26% with an inconclusive outcome. The call rests on the fitted dose curve; in most records, active means well fitted inhibition curve with a large enough effect; inconclusive means small, poorly fitted or top-dose-only effect; inactive means flat fitted curve, though single readings scatter. Only a selection was taken, and actives are over-represented in it overall.
Please state which outcome applies, choosing from active, inactive

Solved cases (5 shown):
compound	discreteLabel
Cc1ccc(Cl)cc1NC(=O)COC(=O)C1CCCCC1	inactive
COCC(C)OC(=O)c1c(N)n(CCCN2CCOCC2)c2nc3ccccc3nc12 (stereo unspecified)	inactive
COC(C(=O)NCc1ccccc1C)c1ccccc1 (stereo unspecified)	inactive
COc1ccccc1OCc1nnc(SCC(N)=O)n1-c1ccccc1	inactive
O=c1[nH]oc(O)c1-c1ncc(C(F)(F)F)cc1Cl	inactive

Req: Hello, I am checking results. What call was entered for `COc1ccccc1NC(=O)CSc1nnc(Cn2nnc(-c3ccccc3)n2)n1-c1ccccc1` ?
Resp: active

----------
experiment: qHTS for Inhibitors of human tyrosyl-DNA phosphodiesterase 1 (TDP1): qHTS in cells in presence of CPT; conditions: chicken DT40 Tdp1-/-;hTDP1 cells + 20 nM CPT, ATP luminescence, 48 h; series mostly up to 46.2 µM; note: nearly all actives have a fitted effect of over 55% in size
In all, about 420,000 compounds went through this assay and about 50,000 (12%) were called active. Not shown: some 26% with an inconclusive outcome. The call rests on the fitted dose curve; in most records, active means well fitted inhibition curve with a large enough effect; inconclusive means small, poorly fitted or top-dose-only effect; inactive means flat fitted curve, though single readings scatter. This is one part of a sample in which actives are shown more often than they occur.
Just give me one of these, please: active, inactive

Previously resolved entries follow.
compound	discreteLabel
Cc1ccnc(NC(=O)CCC(=O)N(CC(=O)NCc2ccccc2)Cc2ccco2)c1	inactive
CCCc1c(C(=O)Nc2ccc(F)cc2)cnn1-c1ccccc1	active
CCCc1c(C(=O)O)cnn1-c1ccc(Cl)cc1	inactive
COc1cccc(NC(=O)C(=O)NCC(c2ccc3c(c2)OCO3)N2CCN(C)CC2)c1 (stereo not drawn)	inactive
Cc1cccc(CSc2nc3ccncc3n2Cc2ccc(C(=O)O)cc2)c1	inactive

Req: Hey, what did the test say about `Cc1nc(-c2ccc([N+](=O)[O-])cc2)c(-c2ccccc2)o1` ?
Resp: inactive

Req: Dear all, I need the recorded test outcome for O=C(Nc1nccs1)C1CCCN1S(=O)(=O)c1cccc2cccnc12 (stereo not drawn) , thank you.
Resp: inactive

Req: Identify the outcome logged in this assay for the compound shown: `O=C1CC(c2ccccc2)=NN1c1ccc([N+](=O)[O-])cc1`
Resp: active

Req: For Cc1ccc2c(c1)N(CC(=O)NCC1CCCO1)C(=O)CO2 (stereo not drawn) , which call appears in the assay record?
Resp: inactive

----------
test: qHTS for Inhibitors of human tyrosyl-DNA phosphodiesterase 1 (TDP1): qHTS in cells in presence of CPT; details: chicken DT40 Tdp1-/-;hTDP1 cells + 20 nM CPT, ATP luminescence, 48 h; series mostly up to 46.2 µM; note: nearly all actives have a fitted effect of over 55% in size; note: potency is the fitted concentration of half-maximal effect
Screen size: about 420,000 compounds; about 50,000 (12%) were called active. About 26% were inconclusive and are not listed. The sample as a whole holds a higher share of actives than the screen did.
propertyMeasured: Potency

Examples with their reported Potency follow.
sampleSmiles	dataValue
COc1cc2c(-c3ccc4c(c3)OCO4)c(-c3ccsc3)oc(=O)c2cc1OC	16.4 µM (active)
Cn1c(C(=O)N2CCC(C(=O)N3CCN(c4ccccc4)CC3)CC2)cc2sccc21	13 µM (active)
CS(=O)(=O)N1CCC(C(=O)N2CCN(c3ccccc3)CC2)CC1	inactive
CCCCN(C(=O)C1=NN(c2cc(C)ccc2C)C(=O)CC1)c1c(N)n(CCC)c(=O)[nH]c1=O	inactive

We now examine a further compound.
Req: Would you mind telling me what Potency value was observed for `O=C(C1CCC1)N1CCN(c2ccccc2)CC1` ?
Resp: inactive

----------
assay: qHTS for Inhibitors of human tyrosyl-DNA phosphodiesterase 1 (TDP1): qHTS in cells in presence of CPT; conditions: chicken DT40 Tdp1-/-;hTDP1 cells + 20 nM CPT, ATP luminescence, 48 h; series mostly up to 46.2 µM; note: nearly all actives have a fitted effect of over 55% in size
The campaign covered roughly 420,000 compounds. About 50,000 (12%) were called active. Inconclusive results (about 26%) are left out. Calls come from the whole dose curve; as a rule, active = well fitted inhibition curve with a large enough effect; inconclusive = small, poorly fitted or top-dose-only effect; inactive = flat fitted curve, though single readings scatter. The sample holds actives, similar compounds and a random draw of the others, so the mix is not that of the screen.
Please reply with one of these outcomes: T for active, F for inactive

compound	discreteLabel
S=C(c1ccccc1)N1CCCC1	F

Pending compound:
Req: Give the logged outcome of this assay for the following compound: CCC(C(=O)Nc1c(C)cccc1C)n1c(-c2cc(C)cs2)nc2ccccc21 (stereo unspecified)
Resp: F

----------
Assay: qHTS for Inhibitors of human tyrosyl-DNA phosphodiesterase 1 (TDP1): qHTS in cells in presence of CPT; note: nearly all actives have a fitted effect of over 55% in size
Conditions: chicken DT40 Tdp1-/-;hTDP1 cells + 20 nM CPT, ATP luminescence, 48 h; series mostly up to 46.2 µM
Procedure: Human tyrosyl-DNA phosphodiesterase 1 (TDP1) is a novel repair gene, and we propose to use it as a new target for anticancer drug development. […] For the primary screen, Tdp1-/-;hTDP1 cells will be exposed to small molecules in the presence or absence of CPT, and their growth kinetics will be evaluated after 48 hours by measuring ATP activity. […] The hit compounds will then be evaluated in the presence or absence of CPT using Tdp1-/- cells. […]
Screen size: about 420,000 compounds; about 50,000 (12%) were called active. Roughly 26% stayed inconclusive and do not appear here. Calls follow the shape of the dose curve; as a rule, active = well fitted inhibition curve with a large enough effect; inconclusive = small, poorly fitted or top-dose-only effect; inactive = flat fitted curve, though single readings scatter. For the sample, actives were picked, then their nearest neighbours and some compounds at random.
Mark one answer only. Choices: y (active), n (inactive)

Answered examples (3):
compound	discreteLabel
O=C(Cc1ccsc1)N1CCN(S(=O)(=O)c2cc(C(F)(F)F)cc(C(F)(F)F)c2)CC1	n
CC(=O)N(O)CCCCCNC(=O)CCC(=O)N(O)CCCCCNC(=O)CCC(=O)N(O)CCCCCNC(=O)CCC(=O)O	n
O=C(CCC1CCCC1)N=C1SC2CS(=O)(=O)CC2N1Cc1ccccc1 (stereo not drawn)	n

Req: Kindly provide the recorded test outcome for the following compound: `COc1ccc(CN2CCN(Cc3ccc(OC)c(OC)c3OC)CC2)cc1`
Resp: n

Req: Please indicate how the test categorized Cc1nnnn1/C(=C\c1ccccc1)C(=O)OCC(=O)N1CC2(C)CC1CC(C)(C)C2 (stereo not drawn) .
Resp: y

Req: GET /call?item= `O=S(=O)(c1ccc(NC(=S)NN=C(C2CC2)C2CC2)cc1)N1CCOCC1` returns the recorded outcome of this test.
Resp: n

Req: Just curious, what result did `O=C(c1ccco1)N1CCC2(CC1)CCN(c1ncccn1)CC2` get here?
Resp: n

Req: Test call, this compound: `CC(=O)n1c(C=Nc2ccccc2)c(O)c2ccccc21`
Resp: n

Req: So what was the verdict on `Fc1ccc(CN2CCc3nc(Nc4ccccc4)ncc3C2)cc1F` in this test?
Resp: y

Req: Could you kindly confirm the outcome this assay logged for `Cn1c(=O)c(CCc2ccccc2)nc2cnc(Nc3ccccc3)nc21` ?
Resp: n

Req: Given `Cn1c(SCC(=O)Nc2ccc(N3CCOCC3)cc2)nnc1C(F)(F)F` , state the outcome it received in this test.
Resp: n

Req: Each compound tested received a call. Report the one for `O=C(CCc1nc(CN2CCN(S(=O)(=O)c3ccc(F)cc3)CC2)no1)N1CCCCC1` .
Resp: n

Req: Lab log entry: `CS(=O)(=O)c1ccc(Cl)c(NC(=O)COC(=O)c2cccc(S(=O)(=O)N3CCCC3)c2)c1` — outcome as called in the assay?
Resp: n

Req: Status in this test for `CCCN(C(=O)CSc1nnc(N)s1)c1c(N)n(Cc2ccccc2)c(=O)[nH]c1=O` ?
Resp: n

Req: Which result was noted for this compound in the test: `Cc1ccc(NC(=O)c2ccccn2)cc1S(=O)(=O)N1CCOCC1`
Resp: n

Req: Hi, do you know how `CC(C)CNS(=O)(=O)c1ccc(CCC(=O)NCc2ccc(Cl)cc2)cc1` came out in this test?
Resp: n

Req: Recorded test outcome, item `O=C(CN1CCN(S(=O)(=O)/C=C/c2ccccc2)CC1)Nc1ccc(N2CCOCC2)cc1`
Resp: n

Req: Assay outcome for `O=C(Nc1c[nH]c(=O)[nH]c1=O)OCc1ccccc1` : what was it?
Resp: n

Req: Dear colleague, could you share the recorded outcome for Cc1ccc(C)c(C(C)NC(=O)C2CCCO2)c1 (stereo not drawn) when you have a moment?
Resp: n

Req: Recorded test call requested for `O=C(CCNC(=O)C1CCN(S(=O)(=O)c2ccccc2)CC1)NC1CC1`
Resp: n

Req: Hey, what did the test say about `CC1CCN(S(=O)(=O)c2ccc3[nH]c(=O)ccc3c2)CC1` ?
Resp: n

Req: Hi, sorry to bother you, what did the test record for `Oc1ccc(N=Cc2c(O)ccc3ccccc23)cc1` ?
Resp: n

Req: Please share the test call associated with Cc1cccc(C(=O)NCC(=O)OCC(=O)N2CC3(C)CC2CC(C)(C)C3)c1 (stereo not drawn) .
Resp: n

Req: Give the logged outcome of this assay for the following compound: `C[C@H]1CN([C@@H](C)CO)C(=O)CCCn2cc(nn2)CO[C@@H]1CN(C)S(=O)(=O)c1cccs1`
Resp: n

Req: What is the recorded call for this compound in the test? O=C1c2ccccc2-c2ccccc2NC1O (stereo not drawn)
Resp: n

Req: Field: outcome | Entry: `COCc1cc(C)nc2sc(C(=O)NC3CCCCC3)c(N)c12`
Resp: n

Req: Any idea what this test logged for `Cc1ccc(SCC(=O)Nc2nncs2)cc1` ?
Resp: n

Req: Please let me know the test result on file for `Cc1ccc(S(=O)(=O)n2nc(C)c(S(=O)(=O)N3CCCCCC3)c2C)cc1` .
Resp: n

Req: Assay outcome for `O=C(Nc1ccc(S(=O)(=O)N2CCOCC2)cc1)C1CCN(S(=O)(=O)c2ccc(Cl)cc2)CC1` : what was it?
Resp: y

Req: Returns: the outcome recorded for `CCN(Cc1ccccc1)Cc1c(O)ccc2c(=O)c(-c3ccc(Cl)cc3Cl)coc12` in this assay.
Resp: n
